Reference for the values: patent US20220125947A1

Some binders, each annotated with its measured Max. Activity.
measured-target: T1, γδ T cell receptor on human γδ T cells (human)
T1 construct: also called AG000003021 (γδ T cells)
assay-procedure: flow cytometry, dose-response binding at 37 C on human γδ T cells
Description: Binding of antibodies to human γδ T cells or SKW cell lines expressing Vγ9/Vδ2, Vγ9/Vδ2 or Vγ5/Vδ2 was carried out by flow cytometry. […] Gating and data analysis: Human anti-human Vγ9 antibody (VG9B2 mAb at 10 nM) was used to mark the gating of positive population. […] Cells were also assessed for cell binding of control mAbs by RL1 (A647) Geomeans from the live cell population. […]
The reply should contain only the number, in fold over background.

binder: VG9B73 (antibody, human IgG1, kappa, V domains shown, IgG1, kappa; also called antibody #22) VH: EVQLVQSGGGLVKPGGSLRLSCAASGFTFSNYDMNWVRQAPGKGLEWVSSISSSSSYIYYADSVKGRFTISRDNARNSLFLQMSSLRAEDTAVYYCAREIGVTGTTYYQDYGMDVWGQGTTVTVSS VL: EIVMTQSPGTLSLSPGERATLSCRASQSFSSNYLAWYQQKPGQAPRLLIYGASSRATGIPDRFSGSGSGTDFTLTISRLEPEDFALYYCQQYGSSPPFTFGQGTKVEIKR
experimental-readout: Max. Activity
result-unit: fold over background
val: 2840

binder: VG9B143 (antibody, human IgG1, lambda, V domains shown, IgG1, lambda; also called antibody #31) VH: EVQLVESGGGLVQPGGSLRLSCAASGFTFSTYGMNWVRQAPGKGLEWISYISTSSYTIYYSDSVKGRFTVSRDNAKNSLYLQMNSLRDEDTAVYYCAREGDWWYFDLWGRGTTVTVSS VL: QSALTQPASVSGSPGQSITISCTGTSSDVGGYNYVSWYQQHPGKAPKLMIYEVSNRPSGVSYRFSGSKSGNTASLTISGLQAEDEADYYCSSYTSSSTLVFGGGTKLTVLG
experimental-readout: Max. Activity
result-unit: fold over background
val: 2630

Measured Max. Activity of VG9B384 (antibody, human IgG1, lambda, V domains shown, IgG1, lambda; also called antibody #36) VH: QVQLQESGPALVKPTQTLTLTCTFSGFSLSSSGMCVSWIRQPPGKALEWLTLIDWFDDKYYSTSLKTRLTISKDTSKNQVVLTMTNMDPVDTATYYCARIRGTGAYYYGLDVWGQGTMVTVSS VL: SYELMQPPSVSVSPGQTASITCSGNELGDKYASWYQQQPGQSPVLVIYQDNKRPSGIPERFSGSNSGNTATLTISGTQAMDEADYYCQAWDSSKVVFGGGTKLTVLG : 2550

Measured Max. Activity of VG9B430 (antibody, human IgG1, kappa, V domains shown, IgG1, kappa; also called antibody #19) VH: EVQLLESGGGLVKPGGSLRLSCSASGFTFSSYDMNWVRQAPGKGLEWVSSISSSSSYIYYADSVKGRFTISRDNAKNSLYLQMNSLRAEDTAVYHCARDVGVTTDYYYYGMDVWGQGTMVTVSS VL: EIVLTQSPGTLSLSPGDRATLSCRASQSVASSYLAWYQQKPGQSPRLLIYGASSRATGIPDRFSGSGSGTDFTLTISRLEPEDFAVYYCQQYGSSPPYTFGQGTKLEIKR : 2970

Measured Max. Activity of VG9B88 (antibody, human IgG1, kappa, V domains shown, IgG1, kappa; also called antibody #35) VH: EVQLVESGGGLVKPGGSLRLSCAVSGFTFSSYTMNWVRQAPGKGLEWVSSISTSSSYIDYADSVKGRFTISRDNAKKSLYLQMNSLRAEDTAVYYCARDGDMVAPIKGSFDYWGQGTLVTVSS VL: EIVLTQSPLSLPVTPGEPASISCRSSQSLLNSDDGNTYLDWYLQKPGQSPQLLIYTLSYRASGVPDRFSGSGSGTDFTLKISRVEAEDVGVYYCMQRIEFPITFGQGTRLEIKR : 2560
